Tested on: SARS‐CoV‐2/FFM1
Conditions: read-out: EC50 visual CPE

{"COMPOUND": "O=C(NC1CN2CCC1CC2)c1cc(Cl)cc2c1OC1CCCCC21 (stereo not shown) [RG‐12915]", "EC50": "12 µM"}
